- TARGET SYSTEM: T1, IL6-R on U266 cells (human, UniProt P08887 20-468)
- T1 sequence (looked up): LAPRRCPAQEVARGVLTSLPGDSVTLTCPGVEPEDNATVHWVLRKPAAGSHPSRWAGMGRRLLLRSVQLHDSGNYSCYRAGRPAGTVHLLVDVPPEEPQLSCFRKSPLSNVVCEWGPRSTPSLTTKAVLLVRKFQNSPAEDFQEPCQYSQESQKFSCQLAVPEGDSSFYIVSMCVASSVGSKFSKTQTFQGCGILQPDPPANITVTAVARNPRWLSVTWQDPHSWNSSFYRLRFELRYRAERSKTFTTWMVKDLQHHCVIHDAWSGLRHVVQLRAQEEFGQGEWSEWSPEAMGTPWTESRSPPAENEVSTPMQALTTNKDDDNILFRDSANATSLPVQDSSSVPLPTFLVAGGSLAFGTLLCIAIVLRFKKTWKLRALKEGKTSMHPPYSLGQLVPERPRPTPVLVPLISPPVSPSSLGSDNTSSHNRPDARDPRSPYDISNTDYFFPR
- ASSAY TEXT: cell-based or functional assay
OUTCOME MEASURE: IC50, XG-1 proliferation with 1 mg/mL human serum albumin (nM)

| BINDER | RESULT VALUE |
| --- | --- |
| IL6R09 (VHH, also called PMP34G9; PMP 34 G9) VHH: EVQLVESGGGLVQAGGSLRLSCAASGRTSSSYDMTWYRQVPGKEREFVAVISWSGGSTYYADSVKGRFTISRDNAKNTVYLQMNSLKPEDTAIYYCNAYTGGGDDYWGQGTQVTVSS | 2.98 |
| IL6R13 (VHH, also called PMP35H4; PMP 35 H4) VHH: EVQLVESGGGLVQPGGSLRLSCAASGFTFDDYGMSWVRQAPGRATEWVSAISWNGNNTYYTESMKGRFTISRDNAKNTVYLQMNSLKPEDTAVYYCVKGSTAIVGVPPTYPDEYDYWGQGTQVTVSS | 1.32 |
| IL6R04 (VHH, also called PMP32C9; PMP 32 C9) VHH: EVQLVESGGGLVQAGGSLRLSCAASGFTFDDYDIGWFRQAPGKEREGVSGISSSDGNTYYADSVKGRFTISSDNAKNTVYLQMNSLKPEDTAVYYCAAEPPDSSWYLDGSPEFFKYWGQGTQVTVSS | 0.099 |
